Each entry below carries its reported ELISA.
target: T1, proprotein convertase subtilisin/kexin type 9 (PCSK9) (human, UniProt Q8NBP7 31-692); experiment: phage spot ELISA
T1 construct: His-tagged full-length PCSK9 in TR-FRET and SPR, biotinylated in phage ELISA; secreted protein is autoprocessed (prodomain plus catalytic/CRD chain starting at S153); also called rec.PCSK9; His-PCSK9
T1 sequence (Q8NBP7 other isoform, or with tags, fused parts or gaps limits assumed): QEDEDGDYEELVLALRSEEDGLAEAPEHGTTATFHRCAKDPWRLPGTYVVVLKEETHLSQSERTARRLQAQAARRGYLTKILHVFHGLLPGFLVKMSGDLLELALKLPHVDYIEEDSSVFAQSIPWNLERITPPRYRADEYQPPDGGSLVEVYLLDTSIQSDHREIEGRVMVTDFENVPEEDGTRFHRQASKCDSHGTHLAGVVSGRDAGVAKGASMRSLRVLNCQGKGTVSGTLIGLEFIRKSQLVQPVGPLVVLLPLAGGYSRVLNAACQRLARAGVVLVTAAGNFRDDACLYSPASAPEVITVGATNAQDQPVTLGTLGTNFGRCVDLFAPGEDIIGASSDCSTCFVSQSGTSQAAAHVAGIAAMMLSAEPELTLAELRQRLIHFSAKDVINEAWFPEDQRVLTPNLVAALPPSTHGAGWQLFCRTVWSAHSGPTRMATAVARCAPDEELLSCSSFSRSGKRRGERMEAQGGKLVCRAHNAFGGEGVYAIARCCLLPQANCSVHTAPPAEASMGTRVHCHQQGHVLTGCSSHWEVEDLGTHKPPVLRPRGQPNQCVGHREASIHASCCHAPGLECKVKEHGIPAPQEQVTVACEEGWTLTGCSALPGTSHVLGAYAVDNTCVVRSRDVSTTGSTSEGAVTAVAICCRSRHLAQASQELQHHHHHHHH

binder | ELISA
TAFTSWEEYLDWVGSGCCSYGYEKCCNG [SEQ ID NO 349] | 2.87
TAFTSWEEYLDWVGSGQELPNHRRLS [SEQ ID NO 346] | 2.3
TAFTSWEEYLDWVGSGSPCRVGYTPC [SEQ ID NO 351] | 2.92
TAFTSWEEYLDWVGSGNCARLYSHQRDYSQVC [SEQ ID NO 352] | 2.66
TAFTSWEEYLDWVGSGSYRGAWSVFGGSTD [SEQ ID NO 336] | 2.79
TAFTSWEEYLDWVGSGRCGLAWCVVLVDQ [SEQ ID NO 365] | 2.62
TAFTSWEEYLDWVGSGCWTYLRGGCSVT [SEQ ID NO 339] | 3.07
